Recorded values, source ChEMBL document CHEMBL5537157.

Exercise: for every item that follows, state its recorded pIC50.
# System: MCF7
# Assay info: Cytotoxicity against human MCF7 cells assessed as inhibition of cell viability incubated for 48 hrs by MTT assay
# Type: functional, cell-based
# Experimental setup: MCF7, 48 h
pIC50: −log10 of the molar value.

Reference set, count: 2
Smiles str: CC(C)[C@]12O[C@H]1[C@@H]1O[C@]13[C@]1(O[C@H]1C[C@H]1C4=C(CC[C@@]13C)C(=O)OC4)[C@]2(O)COC(=O)CCCC[P+](c1ccccc1)(c1ccccc1)c1ccccc1
Measurement target: MCF7
Value measured: < 4.00

Smiles str: CC(C)[C@]12O[C@H]1[C@@H]1O[C@]13[C@]1(O[C@H]1C[C@H]1C4=C(CC[C@@]13C)C(=O)OC4)[C@]2(O)COC(=O)CCCCC[P+](c1ccccc1)(c1ccccc1)c1ccccc1
Measurement target: MCF7
Value measured: < 4.30

For every record below, what is its pIC50?
1. CC(C)[C@]12O[C@H]1[C@@H]1O[C@]13[C@]1(O[C@H]1C[C@H]1C4=C(CC[C@@]13C)C(=O)OC4)[C@]2(O)COC(=O)CCCCCCC[P+](c1ccccc1)(c1ccccc1)c1ccccc1
2. CC(C)[C@]12O[C@H]1[C@@H]1O[C@]13[C@]1(O[C@H]1C[C@H]1C4=C(CC[C@@]13C)C(=O)OC4)[C@]2(O)CO
3. C[n+]1ccc(/C=C/c2c[nH]c3ccccc23)cc1

[out]
1. < 4.00
2. < 4.00
3. < 4.00

[in] Entry CC(C)[C@]12O[C@H]1[C@@H]1O[C@]13[C@]1(O[C@H]1C[C@H]1C4=C(CC[C@@]13C)C(=O)OC4)[C@]2(O)C=O , system MCF7: what pIC50 was measured?
[out] < 4.00
